Below, each entry is listed with its recorded SPOT peptide array binding signal intensity.
molecular target: SpPex13; experiment: SPOT peptide array binding signal intensity (averaged, normalized) (arbitrary units (background-subtracted, floor 0; scale differs between SH3 domains)); higher = stronger binding of the SH3 domain to the peptide
# output: bare number, no unit

Reference set, count: 3
What value of SPOT peptide array binding signal intensity has been reported for the following binder? GSKSGPPPRPKKPST
7

What value of SPOT peptide array binding signal intensity has been reported for the following binder? RTIRKLPLMSLSEYF
26

What value of SPOT peptide array binding signal intensity has been reported for the following binder? FYNRTAFQLPGDARV
2

---
What value of SPOT peptide array binding signal intensity has been reported for the following binder? RVTRKRPREPKSTND
13

What value of SPOT peptide array binding signal intensity has been reported for the following binder? IHTRRPSSTSQYLIR
10
